// data source = patent US8841456B2

Exercise: state measured pIC50 for each of the compounds provided.
TARGET OF ASSAY: human PI3Kα protein (Homo sapiens)
Construct: purchased Carna Biosciences, Inc; host or cells: Baculovirus expression system
Sequence (P42336 whole entry): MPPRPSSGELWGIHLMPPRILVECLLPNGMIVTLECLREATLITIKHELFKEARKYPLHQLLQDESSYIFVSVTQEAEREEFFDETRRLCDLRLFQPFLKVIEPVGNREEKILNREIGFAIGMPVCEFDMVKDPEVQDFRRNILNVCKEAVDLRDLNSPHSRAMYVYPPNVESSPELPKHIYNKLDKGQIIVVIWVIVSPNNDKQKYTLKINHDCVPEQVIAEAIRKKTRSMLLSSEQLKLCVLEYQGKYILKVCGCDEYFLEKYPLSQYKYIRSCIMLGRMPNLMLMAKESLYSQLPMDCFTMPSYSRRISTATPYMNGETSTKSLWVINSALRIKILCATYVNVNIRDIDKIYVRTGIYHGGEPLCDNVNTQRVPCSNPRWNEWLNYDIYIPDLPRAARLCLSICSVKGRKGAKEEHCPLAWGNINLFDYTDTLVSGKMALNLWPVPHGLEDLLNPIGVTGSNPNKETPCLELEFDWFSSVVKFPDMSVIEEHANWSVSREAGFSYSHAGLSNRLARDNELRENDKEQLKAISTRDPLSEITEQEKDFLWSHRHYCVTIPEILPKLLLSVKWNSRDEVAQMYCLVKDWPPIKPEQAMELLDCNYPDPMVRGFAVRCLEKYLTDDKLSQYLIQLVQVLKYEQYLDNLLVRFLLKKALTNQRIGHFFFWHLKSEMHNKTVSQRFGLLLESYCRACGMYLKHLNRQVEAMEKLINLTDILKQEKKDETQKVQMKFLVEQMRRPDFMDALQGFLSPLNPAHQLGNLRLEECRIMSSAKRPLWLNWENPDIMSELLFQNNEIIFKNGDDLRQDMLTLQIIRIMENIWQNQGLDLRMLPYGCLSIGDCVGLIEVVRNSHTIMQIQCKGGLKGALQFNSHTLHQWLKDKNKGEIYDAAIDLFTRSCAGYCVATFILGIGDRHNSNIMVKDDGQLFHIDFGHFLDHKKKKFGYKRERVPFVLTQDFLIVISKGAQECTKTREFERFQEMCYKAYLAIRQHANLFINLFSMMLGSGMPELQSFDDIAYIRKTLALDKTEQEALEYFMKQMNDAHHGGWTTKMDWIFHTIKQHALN
Sequence (P27986 whole entry partner): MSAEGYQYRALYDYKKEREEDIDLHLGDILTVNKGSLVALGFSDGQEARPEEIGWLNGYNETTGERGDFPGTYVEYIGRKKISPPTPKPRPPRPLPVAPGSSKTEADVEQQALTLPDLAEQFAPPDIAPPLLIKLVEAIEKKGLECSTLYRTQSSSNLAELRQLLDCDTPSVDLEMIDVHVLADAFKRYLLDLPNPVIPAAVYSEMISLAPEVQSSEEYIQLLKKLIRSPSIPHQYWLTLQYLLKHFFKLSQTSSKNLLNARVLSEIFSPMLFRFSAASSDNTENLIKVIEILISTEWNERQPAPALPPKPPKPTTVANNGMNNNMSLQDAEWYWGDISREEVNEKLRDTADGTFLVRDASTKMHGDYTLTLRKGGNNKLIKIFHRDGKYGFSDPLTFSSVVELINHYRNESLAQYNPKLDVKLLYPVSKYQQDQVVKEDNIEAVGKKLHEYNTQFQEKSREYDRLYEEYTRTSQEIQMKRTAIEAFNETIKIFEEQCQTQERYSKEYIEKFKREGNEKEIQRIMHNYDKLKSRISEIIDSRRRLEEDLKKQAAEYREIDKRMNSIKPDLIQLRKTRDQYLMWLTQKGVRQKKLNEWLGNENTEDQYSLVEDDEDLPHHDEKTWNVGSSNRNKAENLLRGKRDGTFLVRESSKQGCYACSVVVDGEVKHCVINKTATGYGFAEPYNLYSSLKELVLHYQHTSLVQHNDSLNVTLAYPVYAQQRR
ASSAY NOTES: PI3Kα enzyme assay (ADP-Glo kinase assay)
Format: biochemical
TEST SETTINGS: IC50 class; 3 nM PI3Kα, 50 μM PIP2, 100 μM ATP; read-out: PI3Kα Inhibitory Activity
pIC50: −log10 of the molar value.

Please review the following examples before continuing.
CC(=O)N1CCN(c2cnc3ccc(NC(=O)NC4CCCC4)nc3c2)CC1 [Compound 0148]    > 7.00
CC(C)(C)OC(=O)C1CCN(c2cnc3ccc(NC(=O)NC4CCCC4)nc3c2)CC1 [Compound 0149]    6.00 to 7.00
O=C(Nc1ccc2ncc(Nc3cc[nH]n3)cc2n1)NC1CCCC1 [Compound 0126]    > 7.00
O=C(NCCCOc1ccccc1)Nc1ccc2ncc(-c3cn[nH]c3)cc2n1 [Compound 0104]    6.00 to 7.00
CCCN1CCC(n2cc(-c3cnc4ccc(NC(=O)NC5CCCC5)nc4c3)cn2)CC1 [Compound 0229]    > 7.00
O=C(Nc1ccc2ncc(-c3ccc(CO)cc3)cc2n1)NC1CCCC1 [Compound 0042]    6.00 to 7.00

Parameter requested: pIC50. Apply to each item below.
1. COC(=O)C#Cc1cnc2ccc(NC(=O)NC3CCCC3)nc2c1 [Compound 0127]
2. O=C(Nc1ccc2ncc(-c3cn[nH]c3)cc2n1)N[C@@H]1CC[C@H](CF)C1 [Compound 0200]

[reply]
1: 6.00 to 7.00; 2: > 7.00

Parameter requested: pIC50. Apply to each item below.
1. O=C(NCC1CCCC1)Nc1ccc2ncc(-c3cn[nH]c3)cc2n1 [Compound 0081]
2. O=C(Nc1ccc2ncc(-c3cnn(CC4CNC4)c3)cc2n1)NC1CCCC1 [Compound 0146]

[reply]
> 7.00
> 7.00

Parameter requested: pIC50. Apply to each item below.
1. O=C(Nc1ccc2ncc(-c3cn[nH]c3)cc2n1)NC1C[C@H]2CC[C@@H]1C2 (stereo partly drawn) [Compound 0068]
2. O=C(Nc1ccc2ncc(-c3cn[nH]c3)cc2n1)NC1Cc2ccccc2C1 [Compound 0086]
3. O=C(NCC1C[C@@H]2CC[C@H]1C2)Nc1ccc2ncc(-c3cn[nH]c3)cc2n1 (stereo partly drawn) [Compound 0110]
4. O=C(Nc1ccc2ncc(N3CC(OCCN4CCOCC4)C3)cc2n1)NC1CCCC1 [Compound 0241]

[reply]
1. > 7.00
2. > 7.00
3. > 7.00
4. > 7.00

Parameter requested: pIC50. Apply to each item below.
1. CN(C)CCn1cc(-c2cnc3ccc(NC(=O)NC4CCCC4)nc3c2)cn1 [Compound 0018]
2. O=C(NCCCCc1ccccc1F)Nc1ccc2ncc(-c3cnn(CCCN4CCOCC4)c3)cc2n1 [Compound 0183]
3. O=C(NCC1CCC1)Nc1ccc2ncc(-c3cn[nH]c3)cc2n1 [Compound 0188]
4. O=C(Nc1ccc2ncc(-c3cn[nH]c3)cc2n1)NN1CCCC1 [Compound 0204]
5. O=C(NCC1CCCOC1)Nc1ccc2ncc(-c3cn[nH]c3)cc2n1 (stereo not drawn) [Compound 0190]
6. O=C(NCCCCC1OCCO1)Nc1ccc2ncc(-c3cn[nH]c3)cc2n1 [Compound 0174]
7. O=C(Nc1ccc2ncc(-c3cnn(CCCN4CCOCC4)c3)cc2n1)NC1CCCC1 [Compound 0044]

[reply]
["> 7.00", "> 7.00", "> 7.00", "6.00 to 7.00", "6.00 to 7.00", "> 7.00", "> 7.00"]
